Reference for the values: PubChem BioAssay (NCATS)

Tested on: CP297
Assay: qHTS profiling for inhibitors of Plasmodium falciparum proliferation (AID 504749); note: nearly all actives have a fitted effect of over 60% in size
Details: P. falciparum in erythrocytes, SYBR Green DNA, 72 h; series mostly up to 28.7 µM
Results filed as inconclusive are left out. Calls of active or inactive are those of the source. Calls come from the whole dose curve; as a rule, active = well fitted inhibition curve with a large enough effect; inconclusive = small, poorly fitted or top-dose-only effect; inactive = flat fitted curve, though single readings scatter.
Outcomes: active, inactive

1) O=c1oc2cc(O)ccc2s1 : inactive
2) CCOC(=O)c1c(C)n(C)c2ccc(O)cc12 : inactive
3) Cc1c(OCC(F)(F)F)ccnc1CS(=O)c1nc2ccccc2[nH]1 (configuration not stated) : inactive
4) Nc1ccn([C@@H]2O[C@H](CO)[C@@H](O)C2O)c(=O)n1 (some centres not stated) : inactive
5) COc1cc(OC)c(C(=O)CCCN2CCCC2)c(OC)c1 : inactive
6) C=CCc1cc(OC)c(O)c(C(=O)NCCO)c1 : inactive
7) O=C1CCc2ccc(OCCCCN3CCN(c4cccc(Cl)c4Cl)CC3)cc2N1 : inactive
8) CCCCc1ccc2nc(NC(=O)OC)[nH]c2c1 : inactive
9) CC1(C)CCC(C)(C)c2cc(NC(=O)c3ccc(C(=O)O)cc3)ccc21 : inactive
10) Cn1c(NCCN(CCO)CCCc2ccc([N+](=O)[O-])cc2)cc(=O)n(C)c1=O : inactive
11) CN1CCC(=C2c3ccccc3CCc3sccc32)CC1 : inactive
12) CC(C)c1ccc2oc3nc(N)c(C(=O)O)cc3c(=O)c2c1 : inactive
13) Cc1cccc(C)c1OCC(=O)N[C@@H](Cc1ccccc1)[C@@H](O)C[C@H](Cc1ccccc1)NC(=O)[C@H](C(C)C)N1CCCNC1=O : active
14) Cc1nc2n(c(=O)c1CCN1CCC(c3noc4cc(F)ccc34)CC1)CCCC2 : inactive
15) O=P(O)(O)C(O)(Cn1ccnc1)P(=O)(O)O : inactive
16) CNC[C@@H](O)[C@@H](O)[C@H](O)[C@H](O)CO : inactive
17) Nc1cccc2c1CN(C1CCC(=O)NC1=O)C2=O (configuration not stated) : inactive
18) Nc1ccc(S(N)(=O)=O)cc1 : inactive
19) Cc1cc2c(s1)Nc1ccccc1N=C2N1CCN(C)CC1 : inactive
20) O=C(NC(Cc1cc(=O)[nH]c2ccccc12)C(=O)O)c1ccc(Cl)cc1 (configuration not stated) : inactive
21) COC(=O)C1=C(C)NC(C)=C(C(=O)OCCCN2CCC(c3ccccc3)(c3ccccc3)CC2)C1c1cccc([N+](=O)[O-])c1 (configuration not stated) : active
22) O=C(O)CCNC(=O)c1ccc(N=Nc2ccc(O)c(C(=O)O)c2)cc1 : inactive

---

Test: Cell Viability - LYMP2-018 (AID 985);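 note: compound exposure lasted 24 hr at 37 °C; nearly all actives have a fitted effect of over 50% in size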; note: potency is the fitted concentration of half-maximal effect
Details: LYMP2-018 lymphoblastoid cells, viability (qHTS); series mostly up to 92.2 µM
Results filed as inconclusive are left out. Active and inactive are the calls of the source. The call rests on the fitted dose curve; in most records, active means well fitted cell-killing curve with a large enough effect; inconclusive means small, poorly fitted or top-dose-only effect; inactive means flat fitted curve, though single readings scatter.
measure: Potency

1) Cc1ccc(C)c(OCCCC(C)(C)C(=O)O)c1 : inactive
2) CC(=O)Nc1ccc(O)cc1 : inactive
3) NS(=O)(=O)c1cc(C(=O)O)c(NCc2ccco2)cc1Cl : inactive
4) c1ccc2[nH]c(-c3cscn3)nc2c1 : inactive
5) CCCCC(CC)COC(=O)C(C#N)=C(c1ccccc1)c1ccccc1 (configuration not stated) : inactive
6) CN(C)c1ccc2nc3ccc(=[N+](C)C)cc-3sc2c1 : 7.94 µM (active)
7) COc1c2occc2cc2ccc(=O)oc12 : inactive

---

System: CP215
Assay: qHTS profiling for inhibitors of Plasmodium falciparum proliferation (AID 504749); note: nearly all actives have a fitted effect of over 60% in size
Conditions: P. falciparum in erythrocytes, SYBR Green DNA, 72 h; series mostly up to 28.7 µM
Results filed as inconclusive are left out. Activity calls are given as the source filed them. Calls follow the shape of the dose curve; as a rule, active = well fitted inhibition curve with a large enough effect; inconclusive = small, poorly fitted or top-dose-only effect; inactive = flat fitted curve, though single readings scatter. Peptide text beside a SMILES is read from it.
Outcomes: Y = active, N = inactive

1) CCN(CC)CCOc1ccc(Cc2ccccc2)cc1 : N
2) O=C(O)CCNC(=O)c1ccc(N=Nc2ccc(O)c(C(=O)O)c2)cc1 : N
3) Clc1ccc(C(Cn2ccnc2)OCc2ccsc2Cl)c(Cl)c1 (centres undefined) : Y
4) Nc1ccc(S(N)(=O)=O)cc1 : N
5) Cc1c(OCC(F)(F)F)ccnc1CS(=O)c1nc2ccccc2[nH]1 (centres undefined) : N
6) Cc1ncc([N+](=O)[O-])n1CC(C)O (centres undefined) : N
7) CNC[C@@H](O)[C@@H](O)[C@H](O)[C@H](O)CO : N
8) Cc1cc(C2CCCCC2)n(O)c(=O)c1 : Y
9) COC(=O)[C@H](Cc1ccccc1)NC(=O)[C@@H](N)CC(=O)O (H-Asp-Phe-OMe) : N
10) Cc1cc2c(s1)Nc1ccccc1N=C2N1CCN(C)CC1 : N
11) CCCCN(CCCC)CCC(O)c1cc2c(Cl)cc(Cl)cc2c2cc(C(F)(F)F)ccc12 (centres undefined) : Y
12) Cc1cccc(C)c1OCC(=O)N[C@@H](Cc1ccccc1)[C@@H](O)C[C@H](Cc1ccccc1)NC(=O)[C@H](C(C)C)N1CCCNC1=O : Y
13) Oc1ccc(OCc2ccccc2)cc1 : N
14) Cc1nc2n(c(=O)c1CCN1CCC(c3noc4cc(F)ccc34)CC1)CCCC2 : N
15) O=C(CS(=O)Cc1ccco1)NCC=CCOc1cc(CN2CCCCC2)ccn1 (centres undefined) : N
16) CCCOc1ccc2nc(NC(=O)OC)[nH]c2c1 : N
17) CN(C)CCc1c[nH]c2ccc(Cn3cncn3)cc12 : N
18) CC(C)[C@H](N)C(=O)OCCOCn1cnc2c(=O)[nH]c(N)nc21 : N
19) CN1C(C(=O)Nc2ccccn2)=C(O)c2sccc2S1(=O)=O : N
20) CC(C)(S)[C@@H](N)C(=O)O : N
21) O=C1CCc2ccc(OCCCCN3CCN(c4cccc(Cl)c4Cl)CC3)cc2N1 : N
22) Cc1ccc(C)c(OCCCC(C)(C)C(=O)O)c1 : N
23) COC1=C(OC)C(=O)C(CCCCCCCCCCO)=C(C)C1=O : N
24) Cc1cc(=O)oc2cc(O)ccc12 : N

---

Experiment: Quantitative High-Throughput drug screen in 47 multiple myeloma cell lines against the NCATS MIPE library collection: OPM2_DSMZ cell viability assay (AID 1919872); note: nearly all actives have a fitted effect of over 30% in size
Conditions: OPM2 myeloma viability, CellTiter-Glo ATP luminescence, 48 h; series mostly up to 45.8 µM
Inconclusive results are not listed. Calls of active or inactive are those of the source. Calls follow the shape of the dose curve; as a rule, active = well fitted cell-killing curve with a large enough effect; inconclusive = small, poorly fitted or top-dose-only effect, or effect the other way; inactive = no such curve, though single readings can be large or run the other way.
Outcomes: active, inactive

1. O=C(c1ccccc1)c1ccc2n1CCC2C(=O)O (configuration not stated) : inactive
2. Cc1cccc(-c2[nH]ncc2-c2ccc3ncccc3n2)n1 : inactive
3. O=C(CS(=O)Cc1ccco1)NCC=CCOc1cc(CN2CCCCC2)ccn1 (configuration not stated) : inactive
4. CC1(C)C(=O)N(CCN2CCC(C(=O)c3ccc(F)cc3)CC2)c2ccccc21 : inactive
5. CCCOc1ccc2nc(NC(=O)OC)[nH]c2c1 : active
6. COc1cc2nc(N3CCN(C(=O)C4CCCO4)CC3)nc(N)c2cc1OC (configuration not stated) : inactive
7. Cc1cc2cc3c(C)cc(=O)oc3c(C)c2o1 : inactive
8. CCCS(=O)c1ccc2nc(NC(=O)OC)[nH]c2c1 (configuration not stated) : active
9. O=C(O)c1cccnc1Nc1cccc(C(F)(F)F)c1 : inactive
10. O=C1c2ccccc2-c2n[nH]c3cccc1c23 : inactive
11. CN(C)C(=O)COC(=O)Cc1ccc(OC(=O)c2ccc(N=C(N)N)cc2)cc1 : inactive
12. CN(C)CCc1c[nH]c2ccc(Cn3cncn3)cc12 : inactive

---

Reported growth, % of control values for a set of compounds
Assay: qHTS profiling of the MIPE4 collection as inhibitors of Plasmodium falciparum (HB3) proliferation (AID 743347);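 note: plate controls were DMSO vehicle wells for no effect and artemisinin wells for full effect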
Conditions: P. falciparum HB3 in erythrocytes, SYBR Green DNA, 72 h; at 28.5 µM (top of the series) unless noted
Description: Plasmodium falciparum is a virulent malarial parasite that kills 1-2 million people worldwide each year. […] Because mature erythrocytes lack DNA, only Plasmodium-derived DNA is detected. The SYBR Green viability assay was adapted from a method described previously (Plouffe et al., 2008). […] The following morning, fluorescence intensity at 485(14) nm excitation and 535(25) nm emission wavelengths was measured on an EnVision (Perkin Elmer) plate reader. […]
Non-standard residues stand in square brackets, D forms with d. Residues, ends and D or L forms follow the SMILES beside them. Peptide text beside a SMILES is read from it. *: point of attachment. Sta = CC(C)C[C@H](N)[C@@H](O)CC(=O)O; Isovaleryl = CC(C)CC(=O)*
measure: growth, % of control

1. Nc1ccn([C@@H]2O[C@H](CO)[C@@H](O)C2O)c(=O)n1 (stereo partly specified) : 107%
2. Cc1cc(=O)oc2cc(O)ccc12 : 105%
3. C[C@H](Cn1cnc2c(N)ncnc21)OCP(=O)(O)O : 612%
4. COC(=O)[C@H](Cc1ccccc1)NC(=O)[C@@H](N)CC(=O)O (H-Asp-Phe-OMe) : 107%
5. CCOC(=O)C1=C(O)C(=O)N(Cc2ccccc2)C1 : 93.7%
6. COc1cc(C(C)=O)ccc1OCCCN1CCC(c2noc3cc(F)ccc23)CC1 : 54.6%
7. Cc1cccc(CN2CCN(C(c3ccccc3)c3ccc(Cl)cc3)CC2)c1 (stereo unspecified) : 9.08%
8. Clc1ccc2c(N3CCN(CCCN4CCN(c5ccnc6cc(Cl)ccc56)CC4)CC3)ccnc2c1 : 14.1% [at 9.64 µM]
9. Cc1cccc(C#Cc2ccccc2)n1 : 42%
10. CCCc1cc(=O)[nH]c(=S)[nH]1 : 103%
11. C[C@]12CCC(=O)C=C1CC[C@@H]1[C@H]2[C@@H](O)C[C@@]2(C)[C@H]1CC[C@]2(O)C(=O)CO : 63%
12. Oc1ccc(-c2nc(-c3ccc(F)cc3)c(-c3ccncc3)[nH]2)cc1 : 24.5%
13. NC(=O)Cc1cccc(C(=O)c2ccccc2)c1N : 95.3%
14. CC1=C(C(=O)O)N2C(=O)[C@@H](NC(=O)[C@H](N)C3=CCC=CC3)[C@H]2SC1 : 51.2%
15. CCCCCCCCOc1ccccc1C(=O)Nc1ccc(C(=O)OCC[N+](C)(CC)CC)cc1 : 8.46%
16. O=C(NCCO[N+](=O)[O-])c1cccnc1 : 108%
17. NCCCCNCCCN : 577%
18. O=C(O)c1cn(-c2ccc(F)cc2)c2cc(N3CCNCC3)c(F)cc2c1=O : 208%
19. CC(C)CC(=O)N[C@H](C(=O)N[C@H](C(=O)N[C@@H](CC(C)C)[C@@H](O)CC(=O)N[C@@H](C)C(=O)N[C@@H](CC(C)C)[C@@H](O)CC(=O)O)C(C)C)C(C)C (Isovaleryl-VV[Sta]A[Sta]-OH) : 64.1%
20. CN1CCC(=C2c3ccccc3CCc3sccc32)CC1 : 8.17%
21. O=C1CCc2ccc(OCCCCN3CCN(c4cccc(Cl)c4Cl)CC3)cc2N1 : 62.9%
